Below, each entry is listed with its recorded IC50.
# System: P-815
# Experiment description: In vitro activity in mouse leukemic cell line P-815
# Type: cell-based
# Run parameters: P815, P-815, in vitro, read-out: ID50 (the source's name)

{"Compound": "CSc1ncnc2c([C@@H]3O[C@H](CO)[C@@H](O)[C@H]3O)c[nH]c12", "Assayed system": "P-815", "IC50": "0.3 µg/mL"}
{"Compound": "O=c1[nH]cnc2c([C@@H]3O[C@H](CO)[C@@H](O)[C@H]3O)c[nH]c12 [X = NH, R1 -- OH, R2 = H, reference compound]", "Assayed system": "P-815", "IC50": "> 10 µg/mL"}
{"Compound": "O=c1[nH]cnc2c([C@@H]3O[C@H](CO)[C@@H](O)[C@H]3O)csc12", "Assayed system": "P-815", "IC50": "2.5 µg/mL"}

Documented IC50 of `CSc1ncnc2c([C@@H]3O[C@H](CO)[C@@H](O)[C@H]3O)csc12` : 0.03 µg/mL
